# maps each entry to its apparent KD of K4 kissing-loop reporter
system: K4 kissing-loop RNA reporter; assay: apparent KD of K4 kissing-loop reporter; higher = weaker reporter binding; settings: Eterna round: R107; input ligand: theophylline 20 uM;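 note: bound reporter read as fluorescence of individual clusters on recovered sequencing chips by microscopy, with normalized cluster intensities fitted with a binding model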
Give the number; nM is assumed, so skip it.

Q: Field request: apparent KD of K4 kissing-loop reporter | item: CGGCGGAGUGAUGUUCCACCUACUGCGGAUACCAGCUUUGCCAAAGGCCCUUGGCAGCCGCACGGCUCAGUGAUGUUGGGUCGCG [Same State Theophylline A G11]
Ans: 223

Q: Field request: apparent KD of K4 kissing-loop reporter | item: AAAGUUGCAAGUGAUACCAGACGAGUGAAGGGAAGUAAUUAAUUAGGAGUGAUGUUCCGCGUCCCUUGGCAGCACUUUGUAAUUU [Exclusion Theophylline B GF 25]
Ans: 184

Q: Field request: apparent KD of K4 kissing-loop reporter | item: UAUUUAGUGACGGCCGCCACUAUGGUGAUUUAUUUGUUUGAGUGAUGUUUUGAUGUUUGAUUUUGUAGGACCGGGUUAUGUGUUG [yyycmullin]
Ans: 752

====

tested on: MS2 coat protein; assay: apparent KD of MS2 coat protein; higher = weaker reporter binding; details: Eterna round: R107; input ligand: theophylline 20 uM
Experimental Readout: apparent KD of MS2 coat protein (nM)
Give the number; nM is assumed, so skip it.

1) GGAUAGGACACGGCCGCCACUGCCUAGGAUACUAGAAACAUUUCCUCACAUGAGGAUCACCCAUGUAGGACCGGGUGUCCUAUCG
161

Q: Field request: apparent KD of MS2 coat protein | item: AACAGACGAGACGAUACCAGUCUCUUAGCGCACAUGAGGAUCACCCAUGUUGGCAAGCUCGACCCUUGGCAGCGUACCUUUGAUC [theeternabot_sameState_MS2_Theo_B_6]
Ans: 34.3

Q: Field request: apparent KD of MS2 coat protein | item: AAUUAUCAGUCGGCCGCCACUGACACAUGAGGAUCACCCAUGUAACUUGGGUUAAAUUUAAUAAACAGGACCGGGACAAAGGCUA [JR_ExcTryptoB_Sub010]
Ans: 189

Q: Field request: apparent KD of MS2 coat protein | item: ACAUGAGGAUCACCCAUGUACAUGAGGGAAGGAGCGGUACAUGUGCCAGGUAGGUCGCCCAUGAGCAUCAGCCAUGUACAUCAGC [l,ommullin]
Ans: 102

Q: Field request: apparent KD of MS2 coat protein | item: CUAUUUAUAGCGGCCGCCACUUACUCAUGAGGUAACAACAUGAGGAUCACCCAUGUUUGAGGAUCAAGGACCGGGCUAUAGAUAG [AstrosSSTryB#11]
Ans: 20.3

Q: Field request: apparent KD of MS2 coat protein | item: UAGGACAUGAGGAUCACCCAUGUUGUACGGCGAGGACCGGUACGGCCGCCACUCGAGGCGUAAGUAGUAAAGAAUCUGAUUCAAU [theeternabot_sameState_MS2_Trp_A_4]
Ans: 40.9

Q: Field request: apparent KD of MS2 coat protein | item: UGUAUGUGAUCUGAUACCAGCCUCAUAACUUGAGGAUCACCCAAGUGGAGCGGAAACGCUGGCCCUUGGCAGCAGAUCGCAUACU [TheoBS 2 #AlternativeMS2]
Ans: 200

Q: Field request: apparent KD of MS2 coat protein | item: UAUAUAGAUGGAAGUUCUAUAGAUGCAGAAGGAGCGUAGGAAACUACAGGUAGGUCGCUGAGGUACAUGAGGAUCACCCAUGUAG [SSArg A #20 Slice of Pi]
Ans: 40.5

Q: Field request: apparent KD of MS2 coat protein | item: AAUCGCCUGGGUCGCAUCCUUGCUCCGGAUACCAGUCAAUAGUUGGACCCUUGGCAGCCGUAGACAUGAGGAUCACCCAUGUAUA [theeternabot_exclusion_MS2_Theo_A_42]
Ans: 85.5

Q: Field request: apparent KD of MS2 coat protein | item: GGAUAGGACAGAAGGAGCGACAUGAGGAUCACCCAUGUCUACUAGGACGAAAGUCCGUCAUGUCAGGUAGGUCGCUGUCCUAUCG [#29 Exclusion - Arginine B]
Ans: 103

Q: Field request: apparent KD of MS2 coat protein | item: UCAGUGCAGGGAAGGAGCGGGUACAUGAGGAUCACCCAUGUGCAAGUGGUGAGCGUCCGUGCCCAGGUAGGUCGCCCAGCCUGGU [Atarteedon]
Ans: 235

Q: Field request: apparent KD of MS2 coat protein | item: AAAAUAAAUAAAACACGUAACAUGAAGGAUACCAGACAGGAAACUGUCCCUUGGCAGCCUCUACAUGAGGAUCACCCAUGUCGUG [Mat - Same State Theophlline A - Mod of Eli - D17]
Ans: 128
